The values you see were collected from patent US6492422B2.

biological target: MMP-2CD (gelatinase A catalytic domain) (Homo sapiens); experiment: MMP inhibition, thiopeptolide substrate, MMP-2CD; format: biochemical; settings: thiopeptolide substrate Ac-Pro-Leu-Gly-thioester-Leu-Leu-Gly-OEt
Sequence (P08253 with tags, fused parts or gaps DEL222-396): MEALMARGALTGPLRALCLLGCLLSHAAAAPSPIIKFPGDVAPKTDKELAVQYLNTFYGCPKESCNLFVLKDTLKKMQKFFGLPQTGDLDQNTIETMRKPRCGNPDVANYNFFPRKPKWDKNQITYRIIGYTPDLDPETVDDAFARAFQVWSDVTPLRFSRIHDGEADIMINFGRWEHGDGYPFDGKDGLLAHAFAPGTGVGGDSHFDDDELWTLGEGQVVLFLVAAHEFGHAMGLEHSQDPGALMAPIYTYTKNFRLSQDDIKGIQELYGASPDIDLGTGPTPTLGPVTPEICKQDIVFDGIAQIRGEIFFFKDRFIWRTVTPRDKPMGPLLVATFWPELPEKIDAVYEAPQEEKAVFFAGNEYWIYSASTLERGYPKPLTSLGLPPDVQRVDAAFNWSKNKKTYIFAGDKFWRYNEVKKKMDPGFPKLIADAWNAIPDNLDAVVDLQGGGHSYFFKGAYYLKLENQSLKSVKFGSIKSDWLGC
Recorded IC50 by entry
Units required after the number.

Completed entries (count: 3):
mol_smiles	system	IC50
O=C(O)C[C@H](NS(=O)(=O)c1ccc2c3c(oc2c1)CCCC3)C(=O)O	MMP-2CD (gelatinase A catalytic domain) (Homo sapiens)	0.0167 µM
CC(C)[C@@H](NS(=O)(=O)c1ccc2c3c(oc2c1)CCCC3)C(=O)O	MMP-2CD (gelatinase A catalytic domain) (Homo sapiens)	0.037 µM
CC(C)[C@H](NS(=O)(=O)c1ccc2c3c(oc2c1)CCCC3)C(=O)O	MMP-2CD (gelatinase A catalytic domain) (Homo sapiens)	0.034 µM

Lookup: Query (compound): O=C(O)[C@H](CCc1ccccc1)NS(=O)(=O)c1ccc2c3c(oc2c1)CCCC3 ; field requested: IC50
Found: 0.018 µM

---

Recorded IC50 by entry
Molecular target: MMP-14CD (membrane-type MMP-1) (Homo sapiens, UniProt P50281)
Assay: MMP inhibition, thiopeptolide substrate, MMP-14CD
Type: biochemical
Conditions: thiopeptolide substrate Ac-Pro-Leu-Gly-thioester-Leu-Leu-Gly-OEt; catalytic domain
Method: Experiments were carried out with the full-length and catalytic domains of the proteinases. […]
# output: bare number, implied unit µM

Completed entries (count: 3):
molecule	observed
O=C(O)C[C@H](NS(=O)(=O)c1ccc2c3c(oc2c1)CCCC3)C(=O)O [Example 3]	0.048
O=C(O)[C@H](CCc1ccccc1)NS(=O)(=O)c1ccc2c3c(oc2c1)CCCC3 [Example 4]	0.064
CC(C)[C@@H](NS(=O)(=O)c1ccc2c3c(oc2c1)CCCC3)C(=O)O [Example 1]	0.38

Proceeding to the next molecule to report its IC50.
Lookup: Give the reported IC50 for CC(C)[C@H](NS(=O)(=O)c1ccc2c3c(oc2c1)CCCC3)C(=O)O [Example 2] (system: MMP-14CD (membrane-type MMP-1) (Homo sapiens, UniProt P50281)).
Found: 0.155

---

Recorded IC50 by entry
molecular target: MMP-7FL (matrilysin full length enzyme) (Homo sapiens, UniProt P09237); construct: MMP-7FL (matrilysin full length enzyme); experiment: MMP inhibition, thiopeptolide substrate, MMP-7FL; type: biochemical; details: thiopeptolide substrate Ac-Pro-Leu-Gly-thioester-Leu-Leu-Gly-OEt
Sequence (P09237 95-267): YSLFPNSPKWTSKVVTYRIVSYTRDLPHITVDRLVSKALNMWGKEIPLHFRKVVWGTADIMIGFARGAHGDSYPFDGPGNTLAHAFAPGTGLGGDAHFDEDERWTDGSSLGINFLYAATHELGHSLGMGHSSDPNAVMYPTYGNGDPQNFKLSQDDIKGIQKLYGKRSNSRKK
# output: bare number, implied unit µM

Completed entries (count: 3):
compound	IC50, µM
O=C(O)C[C@H](NS(=O)(=O)c1ccc2c3c(oc2c1)CCCC3)C(=O)O [Example 3]	3.2
CC(C)[C@@H](NS(=O)(=O)c1ccc2c3c(oc2c1)CCCC3)C(=O)O [Example 1]	82
O=C(O)[C@H](CCc1ccccc1)NS(=O)(=O)c1ccc2c3c(oc2c1)CCCC3 [Example 4]	2.3

Proceeding to the next compound to report its IC50.
Lookup: Query (compound): CC(C)[C@H](NS(=O)(=O)c1ccc2c3c(oc2c1)CCCC3)C(=O)O [Example 2] ; field requested: IC50
Found: 7.5

---

target: MMP-13CD (collagenase-3 catalytic domain) (Homo sapiens, UniProt P45452); construct: MMP-13CD (collagenase-3 catalytic domain); made in house; host or cells: Escherichia coli; assay: MMP inhibition, thiopeptolide substrate, MMP-13CD; type: biochemical; conditions: thiopeptolide substrate Ac-Pro-Leu-Gly-thioester-Leu-Leu-Gly-OEt; catalytic domain expressed in Escherichia coli
endpoint_label: IC50 (µM)
# output: bare number, implied unit µM

Lookup: Give the reported IC50 for CC(C)[C@@H](NS(=O)(=O)c1ccc2c3c(oc2c1)CCCC3)C(=O)O (system: MMP-13CD (collagenase-3 catalytic domain) (Homo sapiens, UniProt P45452)).
Found: 3.45

---

Molecular target: MMP-3CD (stromelysin-1 catalytic domain) (Homo sapiens, UniProt P08254)
Construct: MMP-3CD (stromelysin-1 catalytic domain)
Sequence (P08254 100-272 limits assumed): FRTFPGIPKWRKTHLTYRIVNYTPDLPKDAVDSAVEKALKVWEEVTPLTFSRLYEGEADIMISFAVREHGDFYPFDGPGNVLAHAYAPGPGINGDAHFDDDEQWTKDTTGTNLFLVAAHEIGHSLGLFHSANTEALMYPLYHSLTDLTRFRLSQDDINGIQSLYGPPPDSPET
Experiment: MMP inhibition, thiopeptolide substrate, MMP-3CD
Type: biochemical
Conditions: thiopeptolide substrate Ac-Pro-Leu-Gly-thioester-Leu-Leu-Gly-OEt
Experimental: Experiments were carried out with the full-length and catalytic domains of the proteinases. […]
Recorded IC50 by entry
Units required after the number.

Completed entries (count: 2):
molecule	system	observed
O=C(O)[C@H](CCc1ccccc1)NS(=O)(=O)c1ccc2c3c(oc2c1)CCCC3 [Example 4]	MMP-3CD (stromelysin-1 catalytic domain) (Homo sapiens, UniProt P08254)	0.0215 µM
O=C(O)C[C@H](NS(=O)(=O)c1ccc2c3c(oc2c1)CCCC3)C(=O)O [Example 3]	MMP-3CD (stromelysin-1 catalytic domain) (Homo sapiens, UniProt P08254)	0.0056 µM

Lookup: Query (molecule): CC(C)[C@H](NS(=O)(=O)c1ccc2c3c(oc2c1)CCCC3)C(=O)O [Example 2] ; field requested: IC50
Found: 0.0245 µM

Lookup: What would you report for CC(C)[C@@H](NS(=O)(=O)c1ccc2c3c(oc2c1)CCCC3)C(=O)O [Example 1] ?
Found: 0.046 µM

---

Target: MMP-2FL (gelatinase A full length enzyme) (Homo sapiens, UniProt P08253)
Construct: Experiments were carried out with the full-length and catalytic domains of the proteinases
Sequence (P08253 110-660): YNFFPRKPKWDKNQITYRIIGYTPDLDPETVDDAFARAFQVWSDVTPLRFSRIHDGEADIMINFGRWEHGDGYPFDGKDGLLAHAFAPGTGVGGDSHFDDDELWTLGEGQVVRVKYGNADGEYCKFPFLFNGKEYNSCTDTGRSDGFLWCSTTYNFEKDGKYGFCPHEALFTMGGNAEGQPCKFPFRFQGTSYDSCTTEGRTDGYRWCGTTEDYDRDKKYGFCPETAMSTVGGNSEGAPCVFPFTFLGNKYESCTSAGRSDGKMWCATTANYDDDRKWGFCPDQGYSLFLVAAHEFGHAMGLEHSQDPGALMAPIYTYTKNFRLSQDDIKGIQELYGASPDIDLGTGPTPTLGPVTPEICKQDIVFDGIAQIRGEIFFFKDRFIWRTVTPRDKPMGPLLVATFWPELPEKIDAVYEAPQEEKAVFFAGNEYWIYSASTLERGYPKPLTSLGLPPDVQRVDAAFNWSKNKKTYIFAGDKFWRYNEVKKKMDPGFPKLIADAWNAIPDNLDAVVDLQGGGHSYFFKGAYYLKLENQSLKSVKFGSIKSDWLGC
Assay: MMP inhibition, thiopeptolide substrate, MMP-2FL
Format: biochemical
Conditions: thiopeptolide substrate Ac-Pro-Leu-Gly-thioester-Leu-Leu-Gly-OEt
Experimental: Experiments were carried out with the full-length and catalytic domains of the proteinases. […]
endpoint_label: IC50 (µM)
# output: bare number, implied unit µM

Lookup: Query (compound): CC(C)[C@@H](NS(=O)(=O)c1ccc2c3c(oc2c1)CCCC3)C(=O)O ; field requested: IC50
Found: 0.335

Lookup: What would you report for CC(C)[C@H](NS(=O)(=O)c1ccc2c3c(oc2c1)CCCC3)C(=O)O ?
Found: 0.43

Lookup: What would you report for O=C(O)[C@H](CCc1ccccc1)NS(=O)(=O)c1ccc2c3c(oc2c1)CCCC3 ?
Found: 0.15

Lookup: What would you report for O=C(O)C[C@H](NS(=O)(=O)c1ccc2c3c(oc2c1)CCCC3)C(=O)O ?
Found: 0.45

---

biological target: MMP-1FL (collagenase-1 full length enzyme) (Homo sapiens, UniProt P03956); construct: MMP-IFL (collagenase-1 full length enzyme); assay: MMP inhibition, thiopeptolide substrate, MMP-1FL; format: biochemical; conditions: thiopeptolide substrate Ac-Pro-Leu-Gly-thioester-Leu-Leu-Gly-OEt
Sequence (P03956 100-469): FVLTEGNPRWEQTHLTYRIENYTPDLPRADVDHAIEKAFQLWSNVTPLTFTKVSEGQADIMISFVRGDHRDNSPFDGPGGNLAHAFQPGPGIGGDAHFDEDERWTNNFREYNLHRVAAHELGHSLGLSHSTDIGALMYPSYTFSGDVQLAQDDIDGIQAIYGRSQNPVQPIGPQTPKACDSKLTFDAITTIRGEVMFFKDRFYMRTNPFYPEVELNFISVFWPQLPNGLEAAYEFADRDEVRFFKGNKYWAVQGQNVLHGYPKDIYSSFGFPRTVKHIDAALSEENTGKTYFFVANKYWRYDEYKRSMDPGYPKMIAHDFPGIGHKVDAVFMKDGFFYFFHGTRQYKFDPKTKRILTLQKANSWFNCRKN
Recorded IC50 by entry
# output: bare number, implied unit µM

mol_smiles	value_unit	observed
O=C(O)C[C@H](NS(=O)(=O)c1ccc2c3c(oc2c1)CCCC3)C(=O)O	µM	16
CC(C)[C@@H](NS(=O)(=O)c1ccc2c3c(oc2c1)CCCC3)C(=O)O	µM	6.7
CC(C)[C@H](NS(=O)(=O)c1ccc2c3c(oc2c1)CCCC3)C(=O)O	µM	6.05

Lookup: Give the reported IC50 for O=C(O)[C@H](CCc1ccccc1)NS(=O)(=O)c1ccc2c3c(oc2c1)CCCC3 (system: MMP-1FL (collagenase-1 full length enzyme) (Homo sapiens, UniProt P03956)).
Found: 25

---

molecular target: MMP-9FL (gelatinase B full length enzyme) (Homo sapiens); construct: MMP-9-FL (gelatinase B full length enzyme); experiment: MMP inhibition, thiopeptolide substrate, MMP-9FL; format: biochemical; conditions: thiopeptolide substrate Ac-Pro-Leu-Gly-thioester-Leu-Leu-Gly-OEt
Sequence (P14780 94-707): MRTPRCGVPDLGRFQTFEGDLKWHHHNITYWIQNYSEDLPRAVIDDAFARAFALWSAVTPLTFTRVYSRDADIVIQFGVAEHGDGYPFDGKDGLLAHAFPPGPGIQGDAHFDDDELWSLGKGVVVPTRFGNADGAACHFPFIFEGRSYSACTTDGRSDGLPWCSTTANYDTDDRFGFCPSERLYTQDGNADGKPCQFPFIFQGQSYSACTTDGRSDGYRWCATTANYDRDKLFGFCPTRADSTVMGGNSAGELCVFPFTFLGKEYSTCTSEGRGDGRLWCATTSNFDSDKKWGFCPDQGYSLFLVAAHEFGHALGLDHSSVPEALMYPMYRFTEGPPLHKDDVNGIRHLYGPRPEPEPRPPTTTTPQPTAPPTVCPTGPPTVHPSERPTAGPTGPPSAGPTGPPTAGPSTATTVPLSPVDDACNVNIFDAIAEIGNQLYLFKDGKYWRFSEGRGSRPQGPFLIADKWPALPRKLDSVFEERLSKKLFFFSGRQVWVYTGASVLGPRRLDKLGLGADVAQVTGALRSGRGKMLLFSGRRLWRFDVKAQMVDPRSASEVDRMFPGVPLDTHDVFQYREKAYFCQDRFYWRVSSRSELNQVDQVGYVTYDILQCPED
Recorded IC50 by entry
# output: bare number, implied unit µM

mol_smiles	observed
O=C(O)[C@H](CCc1ccccc1)NS(=O)(=O)c1ccc2c3c(oc2c1)CCCC3	28

Lookup: Query (compound): CC(C)[C@H](NS(=O)(=O)c1ccc2c3c(oc2c1)CCCC3)C(=O)O ; field requested: IC50
Found: 100

Lookup: What would you report for CC(C)[C@@H](NS(=O)(=O)c1ccc2c3c(oc2c1)CCCC3)C(=O)O ?
Found: 30

Lookup: What would you report for O=C(O)C[C@H](NS(=O)(=O)c1ccc2c3c(oc2c1)CCCC3)C(=O)O ?
Found: 100

---

target: MMP-13CD (collagenase-3 catalytic domain) (Homo sapiens, UniProt P45452); construct: MMP-13CD (collagenase-3 catalytic domain); made in house; host or cells: Escherichia coli; test: MMP inhibition, thiopeptolide substrate, MMP-13CD; format: biochemical; details: thiopeptolide substrate Ac-Pro-Leu-Gly-thioester-Leu-Leu-Gly-OEt; catalytic domain expressed in Escherichia coli
endpoint_label: IC50 (µM)
# output: bare number, implied unit µM

mol_smiles	IC50 [µM]
CC(C)[C@H](NS(=O)(=O)c1ccc2c3c(oc2c1)CCCC3)C(=O)O	2.3

Lookup: Query (molecule): O=C(O)[C@H](CCc1ccccc1)NS(=O)(=O)c1ccc2c3c(oc2c1)CCCC3 ; field requested: IC50
Found: 1.34

Lookup: What would you report for O=C(O)C[C@H](NS(=O)(=O)c1ccc2c3c(oc2c1)CCCC3)C(=O)O ?
Found: 0.97
